target or system: 5-HT2C receptor (Homo sapiens, UniProt P28335)
Construct: host or cells: U2OS
Sequence (P28335 33-458): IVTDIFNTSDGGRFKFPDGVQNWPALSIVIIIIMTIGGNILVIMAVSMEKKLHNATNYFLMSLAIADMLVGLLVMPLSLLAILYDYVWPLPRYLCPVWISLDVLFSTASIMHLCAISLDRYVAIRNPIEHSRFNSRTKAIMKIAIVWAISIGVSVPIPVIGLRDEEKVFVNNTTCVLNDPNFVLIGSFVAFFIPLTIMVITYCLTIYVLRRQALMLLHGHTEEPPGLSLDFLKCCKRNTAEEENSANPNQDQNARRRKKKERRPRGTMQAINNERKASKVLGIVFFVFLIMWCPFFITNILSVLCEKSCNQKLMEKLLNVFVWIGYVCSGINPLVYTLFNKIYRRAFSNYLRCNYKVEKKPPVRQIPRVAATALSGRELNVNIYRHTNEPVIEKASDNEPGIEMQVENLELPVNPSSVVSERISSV
Sequence (P32121 whole entry partner): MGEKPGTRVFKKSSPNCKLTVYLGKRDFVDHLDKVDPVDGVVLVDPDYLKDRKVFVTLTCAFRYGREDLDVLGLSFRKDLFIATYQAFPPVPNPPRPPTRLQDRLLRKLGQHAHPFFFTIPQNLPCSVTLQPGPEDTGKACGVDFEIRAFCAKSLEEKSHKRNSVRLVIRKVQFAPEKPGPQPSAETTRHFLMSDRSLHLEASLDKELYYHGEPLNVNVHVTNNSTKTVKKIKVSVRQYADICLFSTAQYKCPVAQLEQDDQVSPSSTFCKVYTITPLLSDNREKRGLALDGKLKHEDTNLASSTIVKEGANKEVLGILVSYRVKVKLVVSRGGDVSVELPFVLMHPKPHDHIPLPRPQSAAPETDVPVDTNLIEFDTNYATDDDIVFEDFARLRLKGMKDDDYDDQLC
experimental protocol: Human 5-HT2C functional assay (beta-arrestin2 recruitment, U2OS_HTR2C_β-Arrestin cells)
Type: cell-based
protocol conditions: relative efficacy vs response to 10 μM 5-HT or maximal 5-HT effect (100%)
Counter-ions that a name gives are not always drawn.
recorded endpoint: Emax

{"columns": ["molecule", "value"],
 "data": [
  ["COc1nc(O[C@H]2CC[C@@H](C(F)(F)F)CC2)c(F)cc1CNC(=O)[C@@H]1CCCN1C [Example 19]", "> 70%"],
  ["COc1nc(C2CCCOC2)c(F)cc1CNC(=O)[C@@H]1CCCN1 (stereo partly drawn) [Example 158, Hydrochloride]", "> 70%"],
  ["COc1nc(O[C@H]2CC[C@H](C(F)(F)F)CC2)c(F)cc1CN(C)C(=O)[C@@H]1CCCN1 [Example 116, Hydrochloride]", "50 to 70%"],
  ["COc1nc(N2CCCC(F)(F)C2)c(F)cc1CNC(=O)[C@@H]1CCCN1 [Example 156]", "50 to 70%"],
  ["COc1nc(OC2CCC(C(F)(F)F)CC2)c(F)cc1CNC(=O)[C@@H]1C[C@@H](F)CN1 (stereo partly drawn) [Example 35]", "> 70%"],
  ["COc1nc(N2CC(Oc3ccccc3)C2)c(F)cc1CNC(=O)[C@@H]1CCCN1 [Example 175]", "50 to 70%"],
  ["COc1nc(N(C)C2CC2)c(F)cc1CNC(=O)[C@@H]1CCCN1 [Example 147]", "50 to 70%"],
  ["COc1nc(OCC2CCCCC2)c(F)cc1CNC(=O)[C@@H]1CCCN1 [Example 3]", "> 70%"],
  ["COc1nc(OC2CCC(C(F)(F)F)CC2)c(F)cc1CNC(=O)[C@@H]1C[C@@H](C)CN1C (stereo partly drawn) [Example 62, Hydrochloride]", "> 70%"],
  ["COc1nc(OC2CCC(C(F)(F)F)CC2)c(F)cc1CNC(=O)[C@H]1NC[C@H]1C (stereo partly drawn) [Example 79]", "30 to 50%"],
  ["COc1nc(OCC2CCC(C(F)(F)F)CC2)c(F)cc1CNC(=O)[C@@H]1CCCN1 (stereo partly drawn) [Example 14]", "> 70%"],
  ["COc1nc(OCC2CC(F)(F)C2)c(F)cc1CN(C)C(=O)[C@@H]1CCCN1 [Example 115, Hydrochloride]", "50 to 70%"],
  ["COc1nc(C2CCOCC2)c(F)cc1CNC(=O)[C@@H]1CCCN1 [Example 159, Hydrochloride]", "> 70%"],
  ["COc1nc(N2CCC(F)C2)c(F)cc1CNC(=O)[C@@H]1CCCN1 (stereo partly drawn) [Example 162]", "50 to 70%"],
  ["COc1nc(OC2CCC(C(C)(F)F)CC2)c(F)cc1CNC(=O)[C@@H]1CCCN1 (stereo partly drawn) [Example 72, 2,2,2-trifluoroacetate]", "> 70%"],
  ["COc1nc(OCC(F)(F)C(F)F)c(F)cc1CN(C)C(=O)[C@@H]1CCCN1C [Example 102, Hydrochloride]", "50 to 70%"],
  ["COc1nc(N2CCC(C3CCC(C(F)(F)F)CC3)CC2)c(F)cc1CNC(=O)[C@@H]1CCCN1 (stereo partly drawn) [Example 180]", "> 70%"],
  ["COc1nc(N2CCCCC2)c(F)cc1CNC(=O)[C@@H]1CCCN1 [Example 128]", "> 70%"],
  ["CCCN(Cc1ccccc1)c1nc(OC)c(CNC(=O)[C@@H]2CCCN2)cc1F [Example 171, Hydrochloride]", "> 70%"],
  ["COc1nc(OC2CCCC(F)(F)C2)c(F)cc1CNC(=O)[C@@H]1CCCN1 (stereo partly drawn) [Example 58]", "> 70%"],
  ["COc1nc(OCC2CC2(F)F)c(F)cc1CNC(=O)[C@@H]1CCCN1C (stereo partly drawn) [Example 68, Hydrochloride]", "> 70%"],
  ["COc1nc(OCC(F)(F)C(F)F)c(F)cc1CNC(=O)[C@@H]1CCCN1 [Example 46]", "> 70%"],
  ["COc1nc(OC2CC(F)(F)C2)c(F)cc1CNC(=O)[C@H](C)N1CCC1 [Example 101, Hydrochloride]", "> 70%"],
  ["COc1nc(O[C@@H]2CCCC[C@H]2F)c(F)cc1CNC(=O)[C@@H]1CCCN1 [Example 55]", "> 70%"],
  ["COc1nc(OC2CC(F)(F)C2)c(F)cc1CN(C)C(=O)[C@@H]1CCCN1C [Example 99, Hydrochloride]", "50 to 70%"],
  ["COc1nc(OC2CCC(F)(F)CC2)c(F)cc1CNC(=O)[C@@H]1CCCN1 [Example 1]", "> 70%"],
  ["COc1nc(NCC2CCC(F)(F)CC2)c(F)cc1CNC(=O)[C@@H]1CCCN1 [Example 169]", "> 70%"],
  ["COc1nc(N2CCCC(F)C2)c(F)cc1CNC(=O)[C@@H]1CCCN1 (stereo partly drawn) [Example 161]", "50 to 70%"],
  ["COc1nc(N2CC(Cc3ccccc3)C2)c(F)cc1CNC(=O)[C@@H]1CCCN1 [Example 194]", "> 70%"],
  ["COc1nc(N2CCCCCC2)c(F)cc1CNC(=O)[C@@H]1CCCN1 [Example 155]", "> 70%"],
  ["COc1nc(CC2CCCCC2)c(F)cc1CNC(=O)[C@@H]1CCCN1 [Example 129]", "> 70%"],
  ["COc1nc(OC2CCC(F)(F)C2)c(F)cc1CNC(=O)[C@@H]1CCCN1C (stereo partly drawn) [Example 23]", "> 70%"],
  ["COc1nc(OC2CCC(F)(F)CC2)c(F)cc1CNC(=O)[C@@H]1CCCN1C [Example 10]", "> 70%"]
]}

* * *

experimental protocol: Metabolic stability in human liver microsomes, unbound intrinsic clearance (Cl int/fu mic)
Type: in vitro ADME
protocol conditions: human, liver microsomes, pH 7.4, human liver microsomes 0.25 mg/mL, 0.5 μM compound, NADPH, read-out: Cl int, mic unb. (h) [l/h/kg] (unbound intrinsic clearance, human)
Structures can show the parent of a compound that is named as a salt.
Quick reference: CLint scaled at 0.5 μM of the listed items.
recorded endpoint: CLint scaled at 0.5 μM

{"columns": ["molecule", "value"],
 "data": [
  ["COc1nc(OC2CCC(C(C)(F)F)CC2)c(F)cc1CNC(=O)[C@@H]1CCCN1 (stereo partly drawn) [Example 72, 2,2,2-trifluoroacetate]", "5 to 50 L/h/kg"],
  ["COc1nc(OCC(F)(F)C(F)F)c(F)cc1CNC(=O)[C@@H]1CCCN1", "< 5 L/h/kg"],
  ["COc1nc(OCC2(C(F)F)CC2)c(F)cc1CNC(=O)[C@@H]1CCCN1", "< 5 L/h/kg"],
  ["COc1nc(OCC(F)(F)C(F)(F)F)c(F)cc1CNC(=O)[C@@H]1CCCN1", "< 5 L/h/kg"],
  ["COc1nc(O[C@@H]2CCCC[C@H]2F)c(F)cc1CNC(=O)[C@@H]1CCCN1", "< 5 L/h/kg"],
  ["COc1nc(N2CCC(F)(F)C(C(F)F)C2)c(F)cc1CNC(=O)[C@@H]1CCCN1 (stereo partly drawn) [Example 190, Hydrochloride]", "< 5 L/h/kg"]
]}

* * *

Entries annotated with measured Emax
target or system: 5-HT2C receptor (Homo sapiens)
Construct: host or cells: U2OS
experimental protocol: Human 5-HT2C functional assay (beta-arrestin2 recruitment, U2OS_HTR2C_β-Arrestin cells)
Type: cell-based
protocol conditions: relative efficacy vs response to 10 μM 5-HT or maximal 5-HT effect (100%)
Structures can show the parent of a compound that is named as a salt.
recorded endpoint: Emax

{"columns": ["compound", "value"],
 "data": [
  ["COc1nc(O[C@H]2CCC(F)(F)C2)c(F)cc1CNC(=O)[C@@H]1CCCN1C [Example 26, Hydrochloride]", "> 70%"],
  ["COc1nc(OC2CCCCC2C(F)(F)F)c(F)cc1CNC(=O)[C@@H]1CCCN1 (some centres unmarked)", "> 70%"],
  ["COc1nc(OC[C@@H]2CCC(F)(F)C2)c(F)cc1CNC(=O)[C@@H]1CCCN1C", "> 70%"],
  ["COc1nc(OC2CCC(F)(F)CC2)c(F)cc1CNC(=O)[C@@H]1C[C@@H](C)CN1 [Example 59, Hydrochloride]", "50 to 70%"],
  ["COc1nc(NC2CCC2)c(F)cc1CNC(=O)[C@@H]1CCCN1", "> 70%"],
  ["COc1nc(OC2CCC(F)(F)CC2)c(F)cc1CNC(=O)[C@H]1CCCN1C [Example 52, Hydrochloride]", "> 70%"],
  ["COc1nc(N2CCC(F)(F)CC2)c(F)cc1CN(C)C(=O)[C@@H]1CCCN1", "50 to 70%"],
  ["COc1nc(OCC(C)CC(F)(F)F)c(F)cc1CNC(=O)[C@@H]1CCCN1 (some centres unmarked)", "> 70%"],
  ["COc1nc(C2CC2C(F)(F)F)c(F)cc1CNC(=O)[C@@H]1CCCN1 (some centres unmarked)", "30 to 50%"],
  ["COc1nc(OC2CCC(C(F)(F)F)CC2)c(F)cc1CNC(=O)[C@@H]1CCN1C (some centres unmarked)", "50 to 70%"],
  ["COc1nc(OCc2cc(F)cc(F)c2)c(F)cc1CNC(=O)[C@@H]1CCCN1 [Example 5, Hydrochloride]", "> 70%"],
  ["COc1nc(OC2CCCC2F)c(F)cc1CNC(=O)[C@@H]1CCCN1 (some centres unmarked)", "> 70%"],
  ["COc1nc(OCC2CC(F)(F)C2)c(F)cc1CNC(=O)[C@@H]1CCCN1", "> 70%"],
  ["COc1nc(OCC2(C(F)F)CC2)c(F)cc1CNC(=O)[C@@H]1CCCN1", "> 70%"],
  ["COc1nc(OCCC(F)(F)C(F)(F)F)c(F)cc1CNC(=O)[C@@H]1CCCN1", "> 70%"],
  ["COc1nc(OC[C@@H]2CCC(F)(F)C2)c(F)cc1CNC(=O)[C@H]1CCCN1C", "50 to 70%"],
  ["COc1nc(N2CCCC3(C2)CC3(F)F)c(F)cc1CNC(=O)[C@@H]1CCCN1 (some centres unmarked)", "> 70%"]
]}

Hello, the source for this data is patent US20190062305A1, in case you need it.
